Below, each entry is listed with its recorded IC50.
- study_system: human complement factor B (CVF-Bb complex) (Homo sapiens (Human), UniProt P00751)
- measurement_description: biochemical
// units = µM; emit number, no label

The cases that follow already have their IC50 on record.
[
  {
    "molecule": "COc1cc(C)cc(C)c1C(N)(c1nc2cc(C#N)ccc2[nH]1)C1CC1 (racemic) [Example 9-C]",
    "uom": "µM",
    "IC50": 1.5
  },
  {
    "molecule": "COc1cc(C)cc(C)c1C(N)c1nc2cc(C#N)ccc2[nH]1 (racemic) [Example 7-D]",
    "uom": "µM",
    "IC50": 8.7
  },
  {
    "molecule": "COc1cc(C)cc(C)c1C(O)c1nc2cc(C#N)ccc2[nH]1 (racemic) [Example 1-C]",
    "uom": "µM",
    "IC50": 5.75
  },
  {
    "molecule": "CNC(c1nc2cc(C#N)ccc2[nH]1)(c1c(OC)cc(C)cc1OC)C(F)(F)F (racemic) [Example 12-D (B)]",
    "uom": "µM",
    "IC50": 11.1
  }
]

Lab note: measured IC50 of COc1cc(C)cc(C)c1C(C)(O)c1nc2cc(C#N)ccc2[nH]1 (racemic) [Example 2-C] was 1.45

Lab note: measured IC50 of CNC(c1nc2cc(C#N)ccc2[nH]1)(c1c(C)cccc1OC)C(F)(F)F (racemic) [Example 6-C] was 3.13

Lab note: measured IC50 of CNC(c1nc2cc(C#N)ccc2[nH]1)(c1c(OC)cc(C)c(Cl)c1C)C(F)(F)F (racemic) [Example 6-B] was 1.98

Lab note: measured IC50 of COc1cc(C)cc(C)c1C(O)(c1nc2cc(C#N)ccc2[nH]1)C(F)(F)F (racemic) [Example 3-B] was 0.39

---

- study_system: human complement factor B (CVF-Bb complex) (Homo sapiens (Human))
- measurement_description: biochemical
Below, each entry is listed with its recorded IC50.
// units = µM; emit number, no label

[
  {
    "compound": "COc1cc(C)cc(C)c1C(N)(c1nc2cc(C#N)ccc2[nH]1)C(F)(F)F (racemic)",
    "IC50 / µM": 1.57
  },
  {
    "compound": "COc1cc(C)cc(C)c1C(C)(N)c1nc2cc(C#N)ccc2[nH]1 (racemic)",
    "IC50 / µM": 6.9
  },
  {
    "compound": "CNC(c1nc2cc(C#N)ccc2[nH]1)c1c(OC)cc(C)cc1OC (racemic)",
    "IC50 / µM": 13.9
  }
]

Let us move to another entry and its IC50.
Lab note: measured IC50 of CNC(c1nc2cc(C#N)ccc2[nH]1)(c1ccc(C)cc1OC)C(F)(F)F (racemic) was 0.38

meta.source: patent US9676728B2
